target: Hypoxia-inducible factor 1-alpha (Homo sapiens, UniProt Q16665); assay: Inhibition of HIF-1alpha transcriptional co-activator p300 interaction
Sequence (Q16665 whole entry): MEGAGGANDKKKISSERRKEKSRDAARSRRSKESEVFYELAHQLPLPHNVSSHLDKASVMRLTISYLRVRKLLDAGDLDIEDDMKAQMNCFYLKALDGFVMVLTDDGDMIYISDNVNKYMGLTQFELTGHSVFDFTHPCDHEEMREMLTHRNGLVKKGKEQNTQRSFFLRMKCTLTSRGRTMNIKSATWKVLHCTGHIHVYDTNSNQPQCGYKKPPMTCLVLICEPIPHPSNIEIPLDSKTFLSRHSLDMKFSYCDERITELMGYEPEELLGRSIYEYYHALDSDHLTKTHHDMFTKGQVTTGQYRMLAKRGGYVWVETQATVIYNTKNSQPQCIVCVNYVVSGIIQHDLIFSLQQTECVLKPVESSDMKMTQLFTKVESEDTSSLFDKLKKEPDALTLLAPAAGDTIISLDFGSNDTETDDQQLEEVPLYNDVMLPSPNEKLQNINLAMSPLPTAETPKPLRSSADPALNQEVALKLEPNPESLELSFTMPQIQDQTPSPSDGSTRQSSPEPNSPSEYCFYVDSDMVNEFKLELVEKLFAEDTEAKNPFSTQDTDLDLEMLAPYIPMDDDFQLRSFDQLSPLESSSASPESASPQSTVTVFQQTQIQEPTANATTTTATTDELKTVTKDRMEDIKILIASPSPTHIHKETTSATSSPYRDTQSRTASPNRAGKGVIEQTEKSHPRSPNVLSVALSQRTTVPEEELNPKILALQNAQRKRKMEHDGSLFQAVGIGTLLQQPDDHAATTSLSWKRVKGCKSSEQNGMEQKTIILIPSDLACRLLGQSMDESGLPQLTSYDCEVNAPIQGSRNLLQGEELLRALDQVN
Assay Metric: IC50 (µM)

{"columns": ["Molecule", "System Tested", "Value Measured"],
 "data": [
  ["CN1C(=O)[C@@]23C[C@]4([C@]56C[C@@]78SS[C@@](CO)(C(=O)N7[C@H]5Nc5ccccc56)N(C)C8=O)c5ccccc5N[C@@H]4N2C(=O)[C@]1(CO)SS3 [CHAETOCIN]", "Hypoxia-inducible factor 1-alpha (Homo sapiens, UniProt Q16665)", 12.5]
]}

----------
test: Metabolic stability in rat Hepatocyte assessed as compound remaining at 1 umol/L after 2 hrs by RP-HPLC analysis; assay type: ADME, cell-based; details: hepatocytes, read-out: Stability
Listed here: items and their measured remaining at 2 h, 1 µM.

{"columns": ["Compound", "remaining at 2 h, 1 µM"],
 "data": [
  ["COc1cc2c(cc1O)CC[C@@H]1[C@@H]2CC[C@]2(C)[C@@H](O)CC[C@@H]12 [2-METHOXYESTRADIOL]", "> 65%"],
  ["COc1cc2c(cc1C(N)=O)CC[C@@H]1[C@@H]2CC[C@]2(C)CCC[C@@H]12", "> 65%"]
]}
